Tested on: E. coli ATCC 25922
Format: cell-based, Escherichia coli
Conditions: UTBLP in combination with chloramphenicol
Residues, ends and D or L forms follow the SMILES beside them. *: point of attachment. Octanoyl = CCCCCCCC(=O)*
Sorting guide: entries reporting MICUTBLP [MICcombo] beneath 8 µg/mL go in the 1 pile, the rest go in the 0 pile.

(Q) Lab log: compare recorded MICUTBLP [MICcombo] with 8 µg/mL; is it strictly lower for CCCCCCCC(=O)N[C@@H](CCCCNC)C(=O)NCCCN(CCCNC(=O)[C@H](CCCCNC)NC(=O)CCCCCCC)CC(=O)N[C@@H](CCCCNC)C(N)=O ?
(A) 1

(Q) Say whether its MICUTBLP [MICcombo] is strictly beneath 8 µg/mL. Entry: CCCCCCCC(=O)NCCCC[C@H](NC(=O)CCCCCCC)C(=O)N[C@@H](CCCCN)C(=O)N[C@@H](CCCCN)C(=O)N[C@@H](CCCCN)C(=O)N[C@@H](CCCCN)C(N)=O [UTBLP 5] (Octanoyl-K(Octanoyl)KKKK-NH2)
(A) 0

src = paper PMC8963254
